target: HIV-1 Env of isolate PVO.4 (HIV-1); experiment: cell-based or functional assay
QUANTITY KIND: IC50, pseudovirus neutralization (TZM-bl) (µg/mL)
Answers are plain numbers, in µg/mL.

## Task I have this binder here, 1489_I13 (PG16) (TCN-120) (antibody, V domains shown) VH: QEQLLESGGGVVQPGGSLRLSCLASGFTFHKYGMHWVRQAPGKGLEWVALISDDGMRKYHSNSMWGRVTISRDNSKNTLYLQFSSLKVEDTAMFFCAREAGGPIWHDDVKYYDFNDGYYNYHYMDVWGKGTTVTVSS VL: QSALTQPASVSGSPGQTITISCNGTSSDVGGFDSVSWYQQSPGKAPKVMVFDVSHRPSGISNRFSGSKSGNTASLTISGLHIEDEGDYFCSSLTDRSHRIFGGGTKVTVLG , and I need its recorded IC50, pseudovirus neutralization (TZM-bl).
## Result 20.6

All figures here come from patent US20200024330A1.
